Measured RLU of individual entries
molecular target: T1, recombinant biotinylated CD71 extracellular domain (Sino Biologics) with an N-terminal 6His tag (human, UniProt P02786 89-760, biotinylated (site not stated)); experiment: primary solution ELISA screen
T1 construct: extracellular domain; also called hCD71; huCD71 ECD
T1 sequence (P02786 other isoform, or with tags, fused parts or gaps): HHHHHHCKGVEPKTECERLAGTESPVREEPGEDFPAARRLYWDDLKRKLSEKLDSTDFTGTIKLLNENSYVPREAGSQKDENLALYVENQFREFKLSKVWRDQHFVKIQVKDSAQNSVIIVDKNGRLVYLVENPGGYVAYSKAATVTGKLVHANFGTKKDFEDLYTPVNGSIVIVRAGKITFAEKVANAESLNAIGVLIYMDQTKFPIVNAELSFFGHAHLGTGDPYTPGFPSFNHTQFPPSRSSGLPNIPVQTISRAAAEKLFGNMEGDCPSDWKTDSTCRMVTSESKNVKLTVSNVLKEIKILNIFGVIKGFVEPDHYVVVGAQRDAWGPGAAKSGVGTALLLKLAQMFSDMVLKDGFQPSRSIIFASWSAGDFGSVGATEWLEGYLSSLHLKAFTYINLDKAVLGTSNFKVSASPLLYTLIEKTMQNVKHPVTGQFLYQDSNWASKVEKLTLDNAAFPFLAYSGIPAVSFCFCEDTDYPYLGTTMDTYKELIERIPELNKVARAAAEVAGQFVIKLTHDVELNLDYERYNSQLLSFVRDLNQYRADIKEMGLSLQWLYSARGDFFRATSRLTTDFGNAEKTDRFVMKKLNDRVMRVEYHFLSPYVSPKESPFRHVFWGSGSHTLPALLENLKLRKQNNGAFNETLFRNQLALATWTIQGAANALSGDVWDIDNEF
Write the number in RLU without appending the unit.

Reference set (4 entries):
SEQ ID NO 22 (designed binder, not shown: small tags and cut ends, FN3 domain, hit of the apical domain panning) MLPAPKNLVVSRVTEDSARLSWTAPDAAFDSFWYLELQFAGEAIVLTVPGSERSYDLTGLKPGTEYNVPITGVKGGIISFPLSAIFTT
3.15e+06
SEQ ID NO 53 (designed binder, not shown: small tags and cut ends, FN3 domain, hit of the apical domain panning) MLPAPENLVVSEVTEDSARLSWQGVARAFDSFLITYREQIFAGEVIVLTVPGSERSYDLTGLKPGTEYPVWIQGVKGGSPSAPLSAESTT
1.27e+06
SEQ ID NO 32 (designed binder, not shown: small tags and cut ends, FN3 domain, hit of the apical domain panning) MLPAPKNLVVSRVTEDSARLSWQGVARAFDSFLITYREQIFAGEVIVLTVPGSERSYDLTGLKPGTEYGVTIAGVKGGWRSKPLNAESTT
342000
SEQ ID NO 33 (designed binder, not shown: small tags and cut ends, FN3 domain, hit of the apical domain panning) MLPAPKNLVVSRVTEDSARLSWTAPDAAFDSFGIAYVESYWYGEAIVLTVPGSERSYDLTGLKPGTEYNVPIYGVKGGDGSGPLSAIFTT
271000

Query binder follows.
The reported RLU of the binder SEQ ID NO 84 (designed binder, not shown: small tags and cut ends, FN3 domain, hit of the apical domain panning) MLPAPKNLVVSRVTEDSARLSWQGVARAFDSFSILYLELTPKGEAIVLTVPGSERSYDLTGLKPGTEYPVWIQGVKGGSPSAPLSAEFTT was 3.53e+06
